system: T1, 4H72-bH
T1 chain: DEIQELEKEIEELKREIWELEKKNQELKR
test protocol: two-hybrid library CCNG1;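 also: natural log of median RNA to DNA barcode read ratio; higher means stronger binding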
Labelling: interaction score reported below -0.2 becomes Satisfied; at or above becomes Not satisfied.

[[record]]
binder = "DKNQELEKKIEELKRKIWELEKENQELER [4H3427-bH]"
discrete_label = "Not satisfied"

[[record]]
binder = "DEIQELKKENEELKREIWELKKKIQELER [4H717-bH]"
discrete_label = "Satisfied"

[[record]]
binder = "DKIQELKKEIEELERKNWELKKEIQELKR [4H2618-bH]"
discrete_label = "Satisfied"

[[record]]
binder = "DKNQELEKEIEELERKIWELEKKNQELKR [4H3112-bH]"
discrete_label = "Not satisfied"

[[record]]
binder = "DEIQELEKEIEELKREIWELEKKNQELKR [4H72-bH]"
discrete_label = "Not satisfied"

[[record]]
binder = "DKNQELEKEIEELKRKNWELEKKIQELER [4H3189-bH]"
discrete_label = "Not satisfied"

[[record]]
binder = "DKNQELEKEIEELKRKNWELEKEIQELER [4H3185-bH]"
discrete_label = "Satisfied"

[[record]]
binder = "DKIQELKKENEELEREIWELKKEIQELER [4H2697-bH]"
discrete_label = "Satisfied"

[[record]]
binder = "DKNQELKKKIEELEREIWELEKENQELER [4H3843-bH]"
discrete_label = "Satisfied"

[[record]]
binder = "DEIQELEKKIEELKRENWELEKEIQELKR [4H338-bH]"
discrete_label = "Satisfied"


For this binder, is interaction score lower than -0.2? DEIQELKKEIEELERKNWELEKKNQELKR [4H568-bH]
Satisfied

For this binder, is interaction score lower than -0.2? DKNQELKKKIEELEREIWELKKKNQELER [4H3855-bH]
Satisfied

For this binder, is interaction score lower than -0.2? DKIQELKKEIEELEREIWELKKKNQELKR [4H2576-bH]
Not satisfied

For this binder, is interaction score lower than -0.2? DENQELEKKNEELERKIWELEKKIQELKR [4H1446-bH]
Not satisfied
